System: P388 leukemia ip, CD2F1 mice, survival T/C
Experiment: NCI In Vivo Anticancer Drug Screen. Data for tumor model P388 Leukemia (intraperitoneal) in CD2F1 (CDF1) mice
Settings: endpoint: median survival time; dose: 25.0 mg/kg/injection; schedule: Q01DX009 (ip); vehicle: Klucel (hydroxypropylcellulose) (HPC); higher = longer survival
Inconclusive results and toxic doses are left out.
compounds and their reported T/C

{"COMPOUND": "CN(C)C1C(=O)C(C(N)=O)=C(O)C2(O)C(=O)C3=C(O)c4c(O)cccc4C(C)(O)C3CC12.O.O.O.[Al] (stereo not given)", "T/C": "95 % of control"}

Please report the recorded T/C for COc1ccc2nc(N(C)C)cc(N(C)C)c2c1 .
94 % of control

// query T/C value for entry O=C(OCCCN1CCCC1)C(c1ccccc1)C1C=CCC1 (stereo not given)
100 % of control

Consider the compound Cc1ccc(S(=O)(=O)C(=S)N(C)N(C)C)cc1 and give its measured T/C.
117 % of control

Query: T/C; subject: C=CCn1c(=O)c2[nH]c(Cl)nc2n(CC=C)c1=O
105 % of control

----------
Tested on: P388 leukemia ip, CD2F1 mice, survival T/C
Test: NCI In Vivo Anticancer Drug Screen. Data for tumor model P388 Leukemia (intraperitoneal) in CD2F1 (CDF1) mice
Details: endpoint: median survival time; dose: 100.0 mg/kg/injection; schedule: Q01DX005 (ip); vehicle: Klucel (hydroxypropylcellulose) (HPC); higher = longer survival
Inconclusive results and toxic doses are left out.
Measured T/C values are reported for all entries that follow.

Below: 2 compounds and their reported T/C.
{"COMPOUND": "Ic1ncn(CCN2CCOCC2)c1I", "T/C": "94 % of control"}
{"COMPOUND": "CC(=O)OC1CCC2(C)C(=CCC3C2CCC2(C)C3CC3ON=C(C)C32)C1 (configuration not stated)", "T/C": "86 % of control"}

Next:
So what does the record say about T/C for O=C1NC(Cc2c[nH]c3ccccc23)C(=O)N2CCCC12 (configuration not stated) ?
104 % of control

----------
System: P388 leukemia ip, CD2F1 mice, survival T/C
Experiment: NCI In Vivo Anticancer Drug Screen. Data for tumor model P388 Leukemia (intraperitoneal) in CD2F1 (CDF1) mice
Details: endpoint: median survival time; dose: 200.0 mg/kg/injection; schedule: Q01DX009 (ip); vehicle: water
Inconclusive results and toxic doses are left out. The calls were made as follows: active = survival T/C of 150% or more; inactive = T/C below 125% in these data.
Tick one outcome: 1 (yes) for active, 0 (no) for inactive

Solved entries (count: 4):
{"COMPOUND": "COCC(CC(=O)O)C(C(=O)O)C(=O)O (stereo not given)", "CLASSIFICATION": "0 (no)"}
{"COMPOUND": "Cc1cc(NN=O)nc(C)n1", "CLASSIFICATION": "1 (yes)"}
{"COMPOUND": "O=C(O)C(Cc1ccc(O)cc1)NSc1ccccc1[N+](=O)[O-] (stereo not given)", "CLASSIFICATION": "0 (no)"}
{"COMPOUND": "O=C(O)c1cc(C(=O)O)c(C(=O)O)cc1C(=O)O", "CLASSIFICATION": "0 (no)"}

Turning to the following compound.
Please let me know the test result on file for COc1cc(C(=O)OC(CN2CCOCC2)Cn2nnc3c(OC)c(OC)c(OC)cc3c2=O)cc(OC)c1OC (stereo not given) .
0 (no)

----------
System: P388 leukemia ip, CD2F1 mice, survival T/C
Experiment: NCI In Vivo Anticancer Drug Screen. Data for tumor model P388 Leukemia (intraperitoneal) in CD2F1 (CDF1) mice
Conditions: endpoint: median survival time; dose: 400.0 mg/kg/injection; schedule: Q04DX002 (ip); vehicle: saline; higher = longer survival
Toxic doses and inconclusive results are not listed.
T/C values, listed per item

# annotated cases, reported T/C shown
{"MOLECULE": "O=C(/C=C/c1ccc(O)cc1)OCC1OC(Oc2cc(O)c3c(c2)OC(c2ccc(O)cc2)CC3=O)C(O)C(O)C1O (stereo not given)", "T/C": "107 % of control"}
{"MOLECULE": "NNc1ccc2nnc(Cl)n2n1", "T/C": "108 % of control"}
{"MOLECULE": "O=[N+]([O-])CCc1ccc(OC2OC(CO)C(O)C(O)C2O)cc1 (stereo not given)", "T/C": "97 % of control"}
{"MOLECULE": "CCOC1(OCC)N(S(=O)(=O)c2ccc(C)cc2)C(=O)C(=O)N1S(=O)(=O)c1ccc(C)cc1", "T/C": "103 % of control"}

Would you kindly look at the next entry?
Which value of T/C has been reported for Cc1cccc(C2(Br)C(=O)c3ccccc3C2=O)c1 in the records?
102 % of control

----------
T/C values, listed per item
System: P388 leukemia ip, CD2F1 mice, survival T/C
Test: NCI In Vivo Anticancer Drug Screen. Data for tumor model P388 Leukemia (intraperitoneal) in CD2F1 (CDF1) mice
Conditions: endpoint: median survival time; dose: 12.5 mg/kg/injection; schedule: Q01DX009 (ip); vehicle: saline with Tween-80; higher = longer survival
Inconclusive results and toxic doses are left out. Numbered stars: 1 amine (or outer) side, 2 acyl side, 3 side chain; on linkers, the order of the positions; unused ones are H or OH. Bridge positions count the residues as written; N and C are the ends. Square brackets hold non-standard residues; d marks the D form. Peptide text beside a SMILES is read from it. I, II: the chains in the order shown. Actinocin(9to1) = Cc1c2oc3c(C)ccc(C(=O)[*:1])c3nc-2c(C(=O)[*:2])c(N)c1=O; NMeV = CN[CH](C(=O)O)C(C)C; Pip = O=C(O)[CH]1CCCCN1; Sar = CNCC(=O)O

Solved cases (5 shown):
{"MOLECULE": "FC(F)(F)c1cccc(N=c2ccn3ccccc3c2)c1", "MEASURED_ON": "P388 leukemia ip, CD2F1 mice, survival T/C", "T/C": "103 % of control"}
{"MOLECULE": "C/C(O)=C(/N=Nc1ccc(-c2nc3ccc(C)c(S(=O)(=O)O)c3s2)cc1)C(=O)Nc1ccccc1", "MEASURED_ON": "P388 leukemia ip, CD2F1 mice, survival T/C", "T/C": "95 % of control"}
{"MOLECULE": "CCn1c2ccccc2c2cc(N=Nc3ccnc4c(O)cccc34)ccc21", "MEASURED_ON": "P388 leukemia ip, CD2F1 mice, survival T/C", "T/C": "119 % of control"}
{"MOLECULE": "C=CC[N+](CC=C)(CC=C)CC[N+](CC=C)(CC=C)CC=C", "MEASURED_ON": "P388 leukemia ip, CD2F1 mice, survival T/C", "T/C": "97 % of control"}
{"MOLECULE": "Nc1nc(N)c2cc(CNc3ccc(C(=O)NC(CC(=O)O)CC(=O)O)cc3)ccc2n1", "MEASURED_ON": "P388 leukemia ip, CD2F1 mice, survival T/C", "T/C": "203 % of control"}

// T/C lookup, key: CCC/C=C1\OC(=O)c2ccccc21
104 % of control

I would be grateful if you could share the reported T/C for O=[N+]([O-])c1cc2ccccc2c(O)c1O .
95 % of control

Consider the molecule shown here: CCCCOn1nnc2ccccc21 What is its recorded T/C?
94 % of control

# query: T/C of entry O=S(=O)(OCCCl)c1c(F)c(F)c(F)c(F)c1F
110 % of control

Value lookup for T/C; key = CCCCCCC(/C=C/c1ccc(Cl)c(Cl)c1)=N\Nc1ccccc1
97 % of control

Recorded T/C of CCCCCC1c2cc(O)ccc2OC1N1CCOCC1 (stereo unspecified) , please.
105 % of control

Reported T/C, molecule N#Cc1ncc(C[P+](c2ccccc2)(c2ccccc2)c2ccccc2)nc1N : ____
91 % of control

Entry CC1(c2ccc(Cl)cc2)NC(=O)N(CN2CCCCC2)C1=O (stereo unspecified) has what T/C?
100 % of control

Quick one: T/C for CCOC(=O)c1ccc2[nH]c(-c3ccc(S(=O)(=O)F)cc3)cc(=O)c2c1 ?
87 % of control

Find the recorded T/C belonging to CCOC(=O)c1c[nH]c2ccc(N(CCCl)CCCl)cc12 and report it.
181 % of control

Could you tell me which T/C is on file for Cc1c2oc3c(C)ccc(C(=O)NC4C(=O)NC(C(C)C)C(=O)N5CCCCC5C(=O)N(C)CC(=O)N(C)C(C(C)C)C(=O)OC4C)c3nc-2c(C(=O)NC2C(=O)NC(C(C)C)C(=O)N3CCCCC3C(=O)N(C)CC(=O)N(C)C(C(C)C)C(=O)OC2C)c(N)c1=O (stereo unspecified) (I: TV[Pip][Sar][NMeV] / II: TV[Pip][Sar][NMeV]; ester I:1-I:C, II:1-II:C; linker I:N-II:N via Actinocin(9to1); configuration not given here) ?
195 % of control
